Where these numbers come from: patent US12544382B2

Molecular target: ATR kinase (Homo sapiens (Human))
Sequence (Q13535 whole entry): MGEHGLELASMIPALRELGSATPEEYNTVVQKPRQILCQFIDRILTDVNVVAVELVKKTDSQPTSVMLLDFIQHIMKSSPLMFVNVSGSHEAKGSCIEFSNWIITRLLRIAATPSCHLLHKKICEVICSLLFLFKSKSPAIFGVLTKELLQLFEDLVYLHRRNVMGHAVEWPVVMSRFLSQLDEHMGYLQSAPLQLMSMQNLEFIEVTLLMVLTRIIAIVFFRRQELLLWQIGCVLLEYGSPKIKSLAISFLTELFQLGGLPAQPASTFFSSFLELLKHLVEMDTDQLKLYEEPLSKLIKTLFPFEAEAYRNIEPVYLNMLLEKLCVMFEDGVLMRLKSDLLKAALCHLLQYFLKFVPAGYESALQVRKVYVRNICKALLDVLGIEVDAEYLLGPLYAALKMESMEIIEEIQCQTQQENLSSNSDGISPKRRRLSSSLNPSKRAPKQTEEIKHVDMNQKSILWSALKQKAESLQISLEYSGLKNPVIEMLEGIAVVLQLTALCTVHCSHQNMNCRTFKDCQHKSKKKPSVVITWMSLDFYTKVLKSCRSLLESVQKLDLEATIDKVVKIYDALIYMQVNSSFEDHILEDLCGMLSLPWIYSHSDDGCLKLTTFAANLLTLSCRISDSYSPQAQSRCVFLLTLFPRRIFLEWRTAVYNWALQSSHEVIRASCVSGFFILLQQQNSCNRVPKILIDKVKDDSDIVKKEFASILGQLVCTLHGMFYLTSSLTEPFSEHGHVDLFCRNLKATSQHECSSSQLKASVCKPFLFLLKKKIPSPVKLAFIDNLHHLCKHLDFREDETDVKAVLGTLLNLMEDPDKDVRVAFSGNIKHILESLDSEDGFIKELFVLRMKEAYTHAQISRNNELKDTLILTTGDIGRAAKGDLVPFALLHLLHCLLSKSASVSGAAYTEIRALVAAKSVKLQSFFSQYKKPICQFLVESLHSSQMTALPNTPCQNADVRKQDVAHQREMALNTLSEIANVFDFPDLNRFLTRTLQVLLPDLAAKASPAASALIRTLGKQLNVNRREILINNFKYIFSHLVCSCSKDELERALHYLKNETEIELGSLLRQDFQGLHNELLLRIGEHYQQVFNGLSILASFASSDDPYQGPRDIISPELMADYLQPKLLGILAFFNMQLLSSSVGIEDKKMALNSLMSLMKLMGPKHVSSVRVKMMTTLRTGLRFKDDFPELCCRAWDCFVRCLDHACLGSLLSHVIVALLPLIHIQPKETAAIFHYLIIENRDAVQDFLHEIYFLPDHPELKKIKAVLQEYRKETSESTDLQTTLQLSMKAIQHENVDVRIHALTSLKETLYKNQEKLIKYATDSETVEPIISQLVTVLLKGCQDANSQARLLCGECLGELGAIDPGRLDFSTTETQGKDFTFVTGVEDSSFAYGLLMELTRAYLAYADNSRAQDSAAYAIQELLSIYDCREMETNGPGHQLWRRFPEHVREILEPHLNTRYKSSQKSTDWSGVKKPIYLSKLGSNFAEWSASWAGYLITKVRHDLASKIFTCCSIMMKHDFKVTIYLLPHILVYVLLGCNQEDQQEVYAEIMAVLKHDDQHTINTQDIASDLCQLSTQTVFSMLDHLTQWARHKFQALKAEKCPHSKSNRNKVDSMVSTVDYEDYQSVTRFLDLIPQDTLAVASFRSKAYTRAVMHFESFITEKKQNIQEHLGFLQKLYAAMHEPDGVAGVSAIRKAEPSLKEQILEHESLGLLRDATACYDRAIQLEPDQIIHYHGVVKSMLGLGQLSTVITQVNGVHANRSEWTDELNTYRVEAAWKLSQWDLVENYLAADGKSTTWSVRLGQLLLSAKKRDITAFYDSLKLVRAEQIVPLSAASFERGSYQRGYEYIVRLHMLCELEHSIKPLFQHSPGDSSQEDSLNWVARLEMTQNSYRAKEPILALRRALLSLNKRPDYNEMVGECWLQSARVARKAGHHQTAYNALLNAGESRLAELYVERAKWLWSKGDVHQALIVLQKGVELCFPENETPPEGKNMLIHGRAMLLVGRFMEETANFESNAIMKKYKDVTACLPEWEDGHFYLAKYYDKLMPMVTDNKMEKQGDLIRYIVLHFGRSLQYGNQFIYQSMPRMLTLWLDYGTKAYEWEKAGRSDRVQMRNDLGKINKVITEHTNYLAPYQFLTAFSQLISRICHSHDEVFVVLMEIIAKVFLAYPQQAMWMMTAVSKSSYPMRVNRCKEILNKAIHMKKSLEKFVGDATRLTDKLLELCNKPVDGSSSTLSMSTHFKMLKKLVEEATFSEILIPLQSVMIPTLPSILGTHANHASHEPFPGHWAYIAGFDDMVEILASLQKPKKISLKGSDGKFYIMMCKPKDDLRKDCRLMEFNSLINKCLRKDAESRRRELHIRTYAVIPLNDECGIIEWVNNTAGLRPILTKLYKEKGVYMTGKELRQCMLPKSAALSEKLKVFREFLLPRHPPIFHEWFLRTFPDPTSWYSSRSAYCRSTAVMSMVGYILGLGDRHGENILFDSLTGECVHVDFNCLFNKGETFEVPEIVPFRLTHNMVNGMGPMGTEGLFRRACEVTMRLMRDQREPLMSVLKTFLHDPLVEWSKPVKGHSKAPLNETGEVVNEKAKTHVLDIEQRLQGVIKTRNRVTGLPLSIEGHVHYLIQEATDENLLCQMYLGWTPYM
Sequence (Q8WXE1 whole entry partner): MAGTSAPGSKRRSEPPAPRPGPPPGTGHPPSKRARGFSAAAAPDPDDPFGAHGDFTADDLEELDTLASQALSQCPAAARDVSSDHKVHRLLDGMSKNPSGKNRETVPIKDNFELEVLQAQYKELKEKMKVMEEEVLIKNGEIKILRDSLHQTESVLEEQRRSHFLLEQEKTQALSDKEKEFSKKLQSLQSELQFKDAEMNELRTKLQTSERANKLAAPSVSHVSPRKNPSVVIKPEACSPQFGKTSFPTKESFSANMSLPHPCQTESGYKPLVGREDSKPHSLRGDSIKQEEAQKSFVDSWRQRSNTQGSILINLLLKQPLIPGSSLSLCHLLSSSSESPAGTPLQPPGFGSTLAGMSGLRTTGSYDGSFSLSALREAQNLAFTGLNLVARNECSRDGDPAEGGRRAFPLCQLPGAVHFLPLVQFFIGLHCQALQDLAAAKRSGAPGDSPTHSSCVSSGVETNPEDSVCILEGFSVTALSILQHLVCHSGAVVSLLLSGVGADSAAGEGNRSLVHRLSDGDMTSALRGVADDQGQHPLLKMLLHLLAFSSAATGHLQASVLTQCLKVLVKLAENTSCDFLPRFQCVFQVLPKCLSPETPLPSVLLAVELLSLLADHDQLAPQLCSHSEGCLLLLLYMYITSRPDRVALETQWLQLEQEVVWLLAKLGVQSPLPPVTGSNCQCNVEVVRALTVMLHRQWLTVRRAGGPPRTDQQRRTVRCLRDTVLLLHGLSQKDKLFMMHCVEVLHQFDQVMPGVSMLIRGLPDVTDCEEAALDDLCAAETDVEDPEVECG
pIC50: −log10 of the molar value.
observed_property: pIC50

Enquiry: Recorded pIC50 for Cc1c(-c2cc(N3CCOC[C@H]3C)nc(-c3ccnc4[nH]ccc34)n2)c(C(F)(F)F)nn1C1CCCNC1 (single isomer, unassigned) with ATR kinase (Homo sapiens (Human)), please?
Return: > 9.00

Enquiry: // fetch ATR kinase (Homo sapiens (Human)) pIC50 for `Cc1c(-c2cc(N3CCOC[C@H]3C)nc(-c3cncc4[nH]ccc34)n2)c(C(F)(F)F)nn1C1CCNCC1`
Return: > 9.00

Enquiry: Enter reported pIC50 observed with ATR kinase (Homo sapiens (Human)) for `C[C@@H]1COCCN1c1cc(-c2ccc(S(C)(=O)=O)cc2)nc(-c2ccnc3[nH]ccc23)n1`
Return: < 5.00

----------
System: TOV21G (ovarian cancer) cells
Experiment: In vitro cell proliferation inhibition assay (CellTiter-Glo), TOV21G
Format: cell-based, human
Details: Homo sapiens, 120 hours
Classify: class 1 when IC50 is strictly less than 400 nM; class 0 when IC50 is not.

{"columns": ["compound", "cat"],
 "data": [
  ["CNc1nc2cc(F)ccc2n1-c1nc(-c2c(C)nn(C3CCNCC3)c2C(F)(F)F)cc(N2CCOC[C@H]2C)n1", "class 1"],
  ["CNc1nc2ccccc2n1-c1nc(-c2c(C(F)(F)F)nn(CS(C)(=O)=O)c2C)cc(N2CCOC[C@H]2C)n1", "class 0"],
  ["Cc1c(-c2cc(N3CCOC[C@H]3C)nc(-c3cncc4[nH]ccc34)n2)c(C(F)(F)F)nn1C1CCNCC1", "class 1"],
  ["Cc1nn(C2CCNCC2)c(C(F)(F)F)c1-c1cc(N2CCOC[C@H]2C)nc(-n2c(N)nc3ccccc32)n1", "class 1"],
  ["Cc1nn(C2CCNCC2)c(C(F)(F)F)c1-c1cc(N2CCOC[C@H]2C)nc(-c2cncc3[nH]ccc23)n1", "class 1"],
  ["CC(=O)Nc1nc2ccccc2n1-c1nc(-c2c(C)nn(C3CCNCC3)c2C(F)(F)F)cc(N2CCOC[C@H]2C)n1", "class 0"]
]}

Enquiry: hey, is IC50 for Cc1c(-c2cc(N3CCOC[C@H]3C)nc(-c3ccnc4[nH]ccc34)n2)c(C(F)(F)F)nn1C1CCNCC1 [Compound D2] lower than 400 nM or not?
Return: class 0

Enquiry: Quick check: IC50 of `CNc1nc2ccccc2n1-c1nc(-c2c(C)nn(CS(C)(=O)=O)c2C(F)(F)F)cc(N2CCOC[C@H]2C)n1` under 400 nM?
Return: class 1

Enquiry: Strictly below 400 nM in IC50? `CNc1nc2cc(F)ccc2n1-c1nc(-c2c(C)nn(CS(C)(=O)=O)c2C(F)(F)F)cc(N2CCOC[C@H]2C)n1`
Return: class 0

----------
Recorded IC50 values for a group of compounds are listed next.
System: TOV21G (ovarian cancer) cells
Assay: In vitro cell proliferation inhibition assay (CellTiter-Glo), TOV21G
Format: cell-based, human
Settings: Homo sapiens, 120 hours
Supply the numeric figure in nM, leaving out any unit text.

Sample records with IC50:
{"columns": ["compound", "units_text", "result"],
 "data": [
  ["Cc1nn(C2CCNCC2)c(C(F)(F)F)c1-c1cc(N2CCOC[C@H]2C)nc(-n2c(NC(=O)C3CC3)nc3ccccc32)n1", "nM", 140],
  ["CNc1nc2cc(F)ccc2n1-c1nc(-c2c(C)nn(CC3CCCNC3)c2C(F)(F)F)cc(N2CCOC[C@H]2C)n1 (some centres unmarked)", "nM", 860],
  ["Cc1nn([C@@H]2CCNCC2(F)F)c(C)c1-c1cc(N2CCOC[C@H]2C)nc(-c2cc(F)cc3[nH]ccc23)n1 [Compound D54b]", "nM", 440]
]}

Enquiry: Missing value: IC50, TOV21G (ovarian cancer) cells, entry Cc1nn([C@H]2CCNCC2(F)F)c(C)c1-c1cc(N2CCOC[C@H]2C)nc(-c2cc(F)cc3[nH]ccc23)n1 [Compound D54a] . Fill in?
Return: 180

Enquiry: IC50 of `Cc1nn(C2CCNCC2)c(C(F)(F)F)c1-c1cc(N2CCOC[C@H]2C)nc(-c2cccc3[nH]ccc23)n1` on TOV21G (ovarian cancer) cells?
Return: 230

Enquiry: Find the measured IC50: item Cc1c(-c2cc(N3CCOC[C@H]3C)nc(-c3ccnc4[nH]ccc34)n2)c(C(F)(F)F)nn1C1CCCNC1 (some centres unmarked) [Compound D12] , target or system TOV21G (ovarian cancer) cells.
Return: 280

Enquiry: Notebook entry, TOV21G (ovarian cancer) cells assay: IC50 of `Cc1nn(C2CCNCC2)c(C(F)(F)F)c1-c1cc(N2CCOC[C@H]2C)nc(-c2cc(F)cc3[nH]ccc23)n1` = ?
Return: 280

Enquiry: Which measured IC50 belongs to `Cc1nn(C2CCNCC2)c(C(F)(F)F)c1-c1cc(N2CCOC[C@H]2C)nc(-n2c(N)nc3cc(F)ccc32)n1` , tested on TOV21G (ovarian cancer) cells?
Return: 460
